System: Sam68 (KHDRBS1)
ASSAY_NOTES: Sam68 small-molecule binders, primary screen, biochemical, small-molecule microarray, 635 nm fluorescence (AID 1125);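 note: score merges 667 nm channel intensity with signal to noise over triplicate slides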
ASSAY_CONTEXT: small-molecule microarray binding, higher = more signal
Kindly supply the reported composite z-score values for the records listed here.
Just the number.

What value of composite z-score has been recorded for this entry: CC(C)CCC[C@@H](C)[C@H]1CC[C@@]2(C)C3=C(CC[C@]12C)[C@@]1(C)CC[C@H](OC(=O)CCl)C(C)(C)C1CC3 (stereo partly specified)
0.404

Ok, now CCCCCN1CC=CC23O[C@@H]4/C=C\CCC(C)OC(=O)C4[C@H]2C(=O)N(CCCO)[C@@H]3C1=O (stereo partly specified)
-0.237

Ok, now "COc1ccc(C(=O)Nc2cccc(CN3C(=O)[C@@]4(O[C@@H](CCO)[C@H]([Si](C)(C)c5ccc(OC)cc5)[C@H]4C)c4ccccc43)c2)cc1"
1.18

Ok, now CCCCCN1CC=CC23O[C@@H]4/C=C\CCC(C)OC(=O)C4[C@H]2C(=O)N(CCO)[C@@H]3C1=O (stereo partly specified)
-0.106

Ok, now C=CCC(OC(C)=O)[C@@H]1[C@@H](N(Cc2cccc3ccccc23)C(=O)c2cccc3ccccc23)c2cc(OCCCO)ccc2N1C(=O)Cc1ccc(OC)cc1 (stereo partly specified)
0.457

Ok, now "O=C1O[C@@H](c2ccccc2)[C@@H](c2ccccc2)N2[C@@H](c3ccc(OCCO)cc3)[C@]3(C(=O)Nc4ccc(C#CC5(O)CCCCCC5)cc43)[C@@H](C(=O)NC[C@H](O)c3ccccc3)[C@H]12"
1.32

###

TARGET: Dickkopf-related protein 1 (Homo sapiens)
ASSAY_NOTES: DKK1 binders on small-molecule microarrays, primary screen, biochemical, small-molecule microarray, 635 nm fluorescence scan (AID 1106);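 note: score merges emission near 667 nm with signal to noise over three replicate slides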
ASSAY_CONTEXT: DKK1 binding, higher = more signal
Cut-off -0.3 on composite z-score, inclusive. At or above means Y; below means N.

hey, is composite z-score for this one >= -0.3? "C=CC[C@]1(C(=O)N2CCCCC2)COC(c2ccc(OCCCO)cc2)=N1"
N

Ok, now "CN(C)CCCC[C@@H]1NC(=O)[C@@H]2C[C@H](C(=O)NCCCCCNC(=O)CS)[C@H](c3cccc(OCCO)c3)N2C1=O"
Y

Ok, now "COc1ccc([Si](C)(C)[C@H]2[C@H](CC(=O)N3Cc4ccccc4C[C@H]3CO)O[C@@]3(C(=O)N(Cc4cccc(N5C(=O)COc6ccccc65)c4)c4ccccc43)[C@@H]2C)cc1"
Y

Ok, now C#CCN1C(C(=O)OCC)OC[C@H]1c1ccccc1 (stereo partly drawn)
Y

Ok, now "CCCCC(=C=CC[C@@H](O)c1ccc(OCCO)cc1)C[C@@H](O)c1cc(Cl)cc(Cl)c1O"
N

Ok, now "CCCCC(=C=CC[C@H](O)c1cccc(OCCO)c1)CCO"
Y

Ok, now "O=C1c2ccccc2C(=O)c2cc([C@H]3Oc4ccccc4S(=O)(=O)N4CCC[C@@H]34)ccc21"
Y

Ok, now "CC(C)(C)OC(=O)CC[C@]1(C(=O)NCc2ccccc2)N=C(c2ccc(OCCCO)cc2)O[C@H]1c1ccccc1N=[N+]=[N-]"
Y

###

TARGET: Follistatin (Homo sapiens) (UniProt P19883)
Sequence (P19883 whole entry, looked up): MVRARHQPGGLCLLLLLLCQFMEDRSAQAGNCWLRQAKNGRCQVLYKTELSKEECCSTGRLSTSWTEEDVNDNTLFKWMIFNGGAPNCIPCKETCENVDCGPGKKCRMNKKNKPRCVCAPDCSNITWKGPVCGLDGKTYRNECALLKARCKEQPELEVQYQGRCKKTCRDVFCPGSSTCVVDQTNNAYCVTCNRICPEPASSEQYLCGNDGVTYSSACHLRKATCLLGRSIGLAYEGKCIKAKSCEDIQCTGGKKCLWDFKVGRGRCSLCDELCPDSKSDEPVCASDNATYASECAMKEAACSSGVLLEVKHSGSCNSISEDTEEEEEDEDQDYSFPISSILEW
ASSAY_NOTES: follistatin binders on small-molecule microarrays, primary screen, biochemical, small-molecule microarray, 635/667 nm fluorescence (AID 1132)
ASSAY_CONTEXT: FST binding, 635 nm fluorescence, higher = more signal
Kindly supply the reported composite z-score values for the records listed here.
Just the number.

What value of composite z-score has been recorded for this entry: "O=C1c2ccccc2[C@](Cc2ccccc2I)(C(=O)O)[C@H](c2ccc(CO)cc2)N1Cc1ccccc1Cl"
0.0645

Ok, now "COc1ccc(CCNC(=O)[C@@]2(Sc3ccc(C)cc3)CC(=O)N(Cc3ccccc3)[C@@H]2c2ccc(CO)cc2I)cc1"
-0.168

Ok, now "COc1ccc([Si](C)(C)[C@H]2[C@H](CCO)O[C@@]3(C(=O)N(Cc4ccc(N5C(=O)c6cccc7cccc5c67)cc4)c4ccccc43)[C@@H]2C)cc1"
-0.771

Ok, now "CC(C)(C)OC(=O)CC[C@]1(C(=O)NCc2ccccc2)COC(c2ccc(OCCCO)cc2)=N1"
-0.0444

Ok, now "COc1ccc([Si](C)(C)[C@@H]2[C@@H](CCn3cc([C@H](O)c4ccccc4)nn3)O[C@]3(C(=O)N(C)c4c(Br)cc(C)cc43)[C@H]2C)cc1"
1.19

Ok, now "COCCOC(=O)N1C(=O)[C@@]2(c3cc(C#CCNC(N)=O)ccc31)[C@H](c1ccccc1OCCO)N1[C@H](c3ccccc3)[C@H](c3ccccc3)OC(=O)[C@H]1[C@@H]2C(=O)Nc1nc2ccccc2s1"
1.17

Ok, now "[N-]=[N+]=NCc1ccccc1C[C@@]1(C(=O)NCc2ccccc2)N=C(c2ccc(OCCCO)cc2)O[C@@H]1c1ccccc1"
0.327

Ok, now "COC(=O)[C@@]1(CCC(=O)OC(C)(C)C)COC(c2ccc(OCCCO)cc2)=N1"
-2.21

Ok, now C=CCC(OC(C)=O)[C@@H]1[C@@H](N(Cc2ccc(-c3ccccc3)cc2)C(=O)c2ccc(-c3ccccc3)cc2)c2cc(OCCCO)ccc2N1C(=O)c1ccc(-c2ccccc2)cc1 (stereo partly drawn)
0.288

Ok, now "[N-]=[N+]=NCc1ccccc1C[C@]1(C(=O)NCc2ccccc2)N=C(c2ccc(OCCCO)cc2)O[C@H]1c1ccccc1"
-0.257

Ok, now CC(C)C(CO)N1C(=O)[C@@H]2C3C(=O)OCCC/C=C\[C@H]3OC23C=CCN(C(C)C)C(=O)[C@@H]13 (stereo partly drawn)
-1.05

Ok, now "CC(C)C(=C=CC[C@H](O)c1ccc(OCCO)cc1)C[C@H](O)COCc1ccccc1"
1.31

Ok, now C#CCN1C(C(=O)OCC)OC[C@H]1c1ccccc1 (stereo partly drawn)
0.552
